B1: Pistol ribozyme (parent)
chain: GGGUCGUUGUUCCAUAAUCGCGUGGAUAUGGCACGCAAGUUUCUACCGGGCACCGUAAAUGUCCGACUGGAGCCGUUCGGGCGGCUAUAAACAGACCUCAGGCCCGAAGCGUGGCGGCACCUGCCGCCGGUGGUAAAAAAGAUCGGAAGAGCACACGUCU

variants of: B1; test: aptazyme ON/OFF ratio, guanine; higher = stronger switching; co-transcriptional cleavage with and without guanine
quantity: aptazyme ON/OFF ratio

>>> measured_number("U7C G9U U10G U11A C13G")
1.06
>>> measured_number("U7G U8A G9U U10C U11G C13U")
1.09
>>> measured_number("U7A U8A U10A U11A C12G C13U")
1.13
>>> measured_number("U7A U8G U10C C12U C13A")
1.55
>>> measured_number("U8A G9C U10A U11C")
1.01
>>> measured_number("U7C G9C U10G C13G")
1.08
>>> measured_number("U7G U8G G9C U10C U11G C12U C13A")
1.25
>>> measured_number("U7G U8G U10A U11G C13U")
1.33
>>> measured_number("G9U C12G")
1.75
>>> measured_number("U7A U8A G9A U10A U11C C12A C13A")
1.2
>>> measured_number("U7A U8A G9U U10G U11A C12A C13A")
1.19
>>> measured_number("U7A G9A U10G C12U C13U")
1.32
>>> measured_number("U7G G9U U10G U11G C13U")
1.3
>>> measured_number("U7G G9A C12A C13U")
1.13
>>> measured_number("U8A G9U U10G U11A C12U")
1.05
>>> measured_number("U7A U8G G9U U10A U11A C12U C13A")
1.26
>>> measured_number("U7C U8A G9A U10G U11C C12U C13U")
1.17
>>> measured_number("U7A U8C U11C C12G C13G")
1.22
>>> measured_number("U7A G9A U10A U11G C13U")
1.12
>>> measured_number("U7G G9U U10A U11A C12A C13U")
1.38
>>> measured_number("G9C U10C U11A C12U C13A")
1.08
>>> measured_number("U7C U8C G9A C12A C13U")
1.42

The reported measurements were obtained from the RNAGym collection of RNA variant scans (doi:10.1021/acssynbio.7b00057).
